- MEASUREMENT_TARGET: Mot3 (UniProt P54785)
- Sequence: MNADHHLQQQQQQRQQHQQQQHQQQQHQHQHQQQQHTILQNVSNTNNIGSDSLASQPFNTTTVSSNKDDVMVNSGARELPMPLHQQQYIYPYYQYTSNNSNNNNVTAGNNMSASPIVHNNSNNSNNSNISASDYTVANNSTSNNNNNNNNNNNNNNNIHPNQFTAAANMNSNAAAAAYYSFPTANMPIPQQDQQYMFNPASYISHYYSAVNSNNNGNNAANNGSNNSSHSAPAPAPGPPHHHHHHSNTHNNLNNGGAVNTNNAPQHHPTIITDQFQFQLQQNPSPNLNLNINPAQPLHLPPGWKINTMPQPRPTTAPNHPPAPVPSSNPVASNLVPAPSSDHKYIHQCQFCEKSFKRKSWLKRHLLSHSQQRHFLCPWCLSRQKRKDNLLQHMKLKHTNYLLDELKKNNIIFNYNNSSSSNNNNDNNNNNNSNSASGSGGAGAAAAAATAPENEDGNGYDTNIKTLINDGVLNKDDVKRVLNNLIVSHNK
- EXPERIMENTAL_DETAILS: PBM E-score (8-mer binding enrichment) (E-score (-0.5 to 0.5)); higher = stronger / more preferred TF binding
- EXPERIMENTAL_CONTEXT: protein concentration: 200 nM; construct: GST-full length
Over roughly 33,000 sequences, “E-score (-0.5 to 0.5)” has its median near -0.035; the highest 2% begin near 0.34. Many of the other results were omitted from the sample, so the highest values are more common in it than they were.
Quick rule: PBM E-score of at least 0.3 means criterion met, below that means criterion not met.

[
  {
    "INPUT_SEQUENCE": "GTTTACAA",
    "GROUP_LABEL": "criterion met"
  },
  {
    "INPUT_SEQUENCE": "AAGAACGG",
    "GROUP_LABEL": "criterion not met"
  },
  {
    "INPUT_SEQUENCE": "AATTTTAC",
    "GROUP_LABEL": "criterion not met"
  },
  {
    "INPUT_SEQUENCE": "ATTTTTAC",
    "GROUP_LABEL": "criterion met"
  },
  {
    "INPUT_SEQUENCE": "ATCATGTG",
    "GROUP_LABEL": "criterion not met"
  },
  {
    "INPUT_SEQUENCE": "CATAGGCG",
    "GROUP_LABEL": "criterion not met"
  },
  {
    "INPUT_SEQUENCE": "ATGAACGC",
    "GROUP_LABEL": "criterion not met"
  },
  {
    "INPUT_SEQUENCE": "CATAGGCA",
    "GROUP_LABEL": "criterion met"
  },
  {
    "INPUT_SEQUENCE": "GATCCATA",
    "GROUP_LABEL": "criterion not met"
  },
  {
    "INPUT_SEQUENCE": "GCATTACA",
    "GROUP_LABEL": "criterion met"
  },
  {
    "INPUT_SEQUENCE": "TAAGGATA",
    "GROUP_LABEL": "criterion not met"
  },
  {
    "INPUT_SEQUENCE": "AAGACGCA",
    "GROUP_LABEL": "criterion not met"
  },
  {
    "INPUT_SEQUENCE": "TATAGGCA",
    "GROUP_LABEL": "criterion met"
  },
  {
    "INPUT_SEQUENCE": "GAGGCCCC",
    "GROUP_LABEL": "criterion not met"
  },
  {
    "INPUT_SEQUENCE": "AAGGCAGC",
    "GROUP_LABEL": "criterion not met"
  },
  {
    "INPUT_SEQUENCE": "CGTAATAA",
    "GROUP_LABEL": "criterion not met"
  },
  {
    "INPUT_SEQUENCE": "AAGGCAAG",
    "GROUP_LABEL": "criterion met"
  },
  {
    "INPUT_SEQUENCE": "AAGCGTAA",
    "GROUP_LABEL": "criterion not met"
  },
  {
    "INPUT_SEQUENCE": "AGGAAGCG",
    "GROUP_LABEL": "criterion not met"
  },
  {
    "INPUT_SEQUENCE": "GTAGGAGA",
    "GROUP_LABEL": "criterion not met"
  },
  {
    "INPUT_SEQUENCE": "CACTGTCC",
    "GROUP_LABEL": "criterion not met"
  },
  {
    "INPUT_SEQUENCE": "ATTTTTAA",
    "GROUP_LABEL": "criterion not met"
  },
  {
    "INPUT_SEQUENCE": "GATAGGCA",
    "GROUP_LABEL": "criterion met"
  },
  {
    "INPUT_SEQUENCE": "TGTAAACA",
    "GROUP_LABEL": "criterion met"
  },
  {
    "INPUT_SEQUENCE": "TACAGTCA",
    "GROUP_LABEL": "criterion not met"
  },
  {
    "INPUT_SEQUENCE": "GATAGGCC",
    "GROUP_LABEL": "criterion not met"
  },
  {
    "INPUT_SEQUENCE": "GGGAACGA",
    "GROUP_LABEL": "criterion not met"
  },
  {
    "INPUT_SEQUENCE": "CCATTACA",
    "GROUP_LABEL": "criterion met"
  },
  {
    "INPUT_SEQUENCE": "CACTGGCC",
    "GROUP_LABEL": "criterion not met"
  },
  {
    "INPUT_SEQUENCE": "GCATTACC",
    "GROUP_LABEL": "criterion not met"
  },
  {
    "INPUT_SEQUENCE": "ACGGCAAT",
    "GROUP_LABEL": "criterion not met"
  },
  {
    "INPUT_SEQUENCE": "GAGGAGGC",
    "GROUP_LABEL": "criterion not met"
  },
  {
    "INPUT_SEQUENCE": "ATTTACAC",
    "GROUP_LABEL": "criterion met"
  },
  {
    "INPUT_SEQUENCE": "CATAGGCC",
    "GROUP_LABEL": "criterion not met"
  },
  {
    "INPUT_SEQUENCE": "CTAGGAAC",
    "GROUP_LABEL": "criterion met"
  },
  {
    "INPUT_SEQUENCE": "GGTAAACA",
    "GROUP_LABEL": "criterion met"
  },
  {
    "INPUT_SEQUENCE": "ATTATGTA",
    "GROUP_LABEL": "criterion met"
  },
  {
    "INPUT_SEQUENCE": "AGGGCAAA",
    "GROUP_LABEL": "criterion not met"
  },
  {
    "INPUT_SEQUENCE": "CCTAGAAA",
    "GROUP_LABEL": "criterion not met"
  },
  {
    "INPUT_SEQUENCE": "ACCAGTAA",
    "GROUP_LABEL": "criterion not met"
  },
  {
    "INPUT_SEQUENCE": "CCTAGGAC",
    "GROUP_LABEL": "criterion not met"
  },
  {
    "INPUT_SEQUENCE": "CGGAACGC",
    "GROUP_LABEL": "criterion not met"
  },
  {
    "INPUT_SEQUENCE": "CTCATGTC",
    "GROUP_LABEL": "criterion not met"
  },
  {
    "INPUT_SEQUENCE": "CTTCCACA",
    "GROUP_LABEL": "criterion not met"
  },
  {
    "INPUT_SEQUENCE": "GGTAATAA",
    "GROUP_LABEL": "criterion not met"
  },
  {
    "INPUT_SEQUENCE": "CGTGTATA",
    "GROUP_LABEL": "criterion met"
  },
  {
    "INPUT_SEQUENCE": "CACAGGCA",
    "GROUP_LABEL": "criterion met"
  },
  {
    "INPUT_SEQUENCE": "AAGGCAAA",
    "GROUP_LABEL": "criterion met"
  },
  {
    "INPUT_SEQUENCE": "ATTTACAA",
    "GROUP_LABEL": "criterion met"
  },
  {
    "INPUT_SEQUENCE": "CAAGGAAA",
    "GROUP_LABEL": "criterion met"
  },
  {
    "INPUT_SEQUENCE": "GCGGACAC",
    "GROUP_LABEL": "criterion not met"
  },
  {
    "INPUT_SEQUENCE": "ATAGGGAA",
    "GROUP_LABEL": "criterion not met"
  },
  {
    "INPUT_SEQUENCE": "ACATTACG",
    "GROUP_LABEL": "criterion not met"
  },
  {
    "INPUT_SEQUENCE": "GATAGGGA",
    "GROUP_LABEL": "criterion not met"
  },
  {
    "INPUT_SEQUENCE": "GTAGGAAA",
    "GROUP_LABEL": "criterion met"
  },
  {
    "INPUT_SEQUENCE": "AGTAAAAA",
    "GROUP_LABEL": "criterion not met"
  },
  {
    "INPUT_SEQUENCE": "GAAGGAAA",
    "GROUP_LABEL": "criterion met"
  },
  {
    "INPUT_SEQUENCE": "ATGGCAAC",
    "GROUP_LABEL": "criterion not met"
  },
  {
    "INPUT_SEQUENCE": "ATAGGATA",
    "GROUP_LABEL": "criterion not met"
  },
  {
    "INPUT_SEQUENCE": "AACAGGCA",
    "GROUP_LABEL": "criterion met"
  },
  {
    "INPUT_SEQUENCE": "GACAGGGA",
    "GROUP_LABEL": "criterion not met"
  },
  {
    "INPUT_SEQUENCE": "CGTAGCCA",
    "GROUP_LABEL": "criterion not met"
  },
  {
    "INPUT_SEQUENCE": "ATGAACGG",
    "GROUP_LABEL": "criterion not met"
  },
  {
    "INPUT_SEQUENCE": "ATCATGTC",
    "GROUP_LABEL": "criterion not met"
  },
  {
    "INPUT_SEQUENCE": "TATAGTCA",
    "GROUP_LABEL": "criterion not met"
  },
  {
    "INPUT_SEQUENCE": "GTCATGCA",
    "GROUP_LABEL": "criterion not met"
  },
  {
    "INPUT_SEQUENCE": "ACGGCAAG",
    "GROUP_LABEL": "criterion not met"
  },
  {
    "INPUT_SEQUENCE": "ACATTACA",
    "GROUP_LABEL": "criterion met"
  },
  {
    "INPUT_SEQUENCE": "TACAGGCA",
    "GROUP_LABEL": "criterion met"
  },
  {
    "INPUT_SEQUENCE": "CTTTACAA",
    "GROUP_LABEL": "criterion met"
  },
  {
    "INPUT_SEQUENCE": "AGTGTACA",
    "GROUP_LABEL": "criterion not met"
  },
  {
    "INPUT_SEQUENCE": "TCATTACA",
    "GROUP_LABEL": "criterion met"
  },
  {
    "INPUT_SEQUENCE": "AGGAACGA",
    "GROUP_LABEL": "criterion met"
  },
  {
    "INPUT_SEQUENCE": "CTCATGGA",
    "GROUP_LABEL": "criterion not met"
  },
  {
    "INPUT_SEQUENCE": "CCCGTTGA",
    "GROUP_LABEL": "criterion not met"
  },
  {
    "INPUT_SEQUENCE": "AATAGGCC",
    "GROUP_LABEL": "criterion not met"
  },
  {
    "INPUT_SEQUENCE": "ATAGGAAA",
    "GROUP_LABEL": "criterion met"
  },
  {
    "INPUT_SEQUENCE": "CCTTCAGA",
    "GROUP_LABEL": "criterion not met"
  },
  {
    "INPUT_SEQUENCE": "AAAACTCA",
    "GROUP_LABEL": "criterion not met"
  }
]

These measurements were taken from the supplement of paper PMC3334620.
